Data origin, for the record: patent US9181234B2

assay protocol: physchem
measurement context: pH 7.4, aqueous buffer, kinetic from dmso stock, Solubility (pH 7.4)
Assignment: determine reported solubility at 24 h for the given compounds.

Reference set, count: 2
CCNC(=O)Nc1nc2cc(-c3cnc(N4CCC(C)(C(=O)O)CC4)nc3)cc(/C(C)=N/O)c2s1 [Compound 95]
≥ 800 µg/mL
CCNC(=O)Nc1nc2cc(-c3cnc(N4CCC(COC)(C(=O)O)CC4)nc3)cc(-c3ccccn3)c2s1 [Compound 141]
≥ 800 µg/mL

// next entry
Which solubility at 24 h is listed for CCNC(=O)Nc1nc2cc(-c3cnc(N4CCC(CC)(C(=O)O)CC4)nc3)cc(-c3nccc(OC)n3)c2s1 [Compound 109] ? ≥ 800 µg/mL

----------
Field: Cmaxoral. Provide a value for each of the compounds that follow.
assay protocol: Pharmacokinetic assay, IV and oral PK profile, rat
Assay type: in vivo
measurement context: single peroral dose 3 mg/kg, plasma

Solved entries (count: 3):
C=CCC1(C(=O)O)CCN(c2ncc(-c3cc(-c4ccccn4)c4sc(NC(=O)NCC)nc4c3)cn2)CC1 [Compound 136]
5500 ng/mL
CCNC(=O)Nc1nc2cc(-c3cnc(N4CCC(C)(C(=O)O)CC4)nc3)cc(-c3ccccn3)c2s1 [Compound 1]
1800 ng/mL
CCNC(=O)Nc1nc2cc(-c3cnc(N4CCC(COC)(C(=O)O)CC4)nc3)cc(-c3ccccn3)c2s1 [Compound 141]
300 ng/mL

API: the following record is the query input.
Field request: Cmaxoral | item: CCNC(=O)Nc1nc2cc(-c3cnc(N4CCC(C)(C(=O)O)CC4)nc3)cc(-c3cscn3)c2s1 [Compound 21] 400 ng/mL

----------
What solubility at 24 h was measured for each of the following?
assay protocol: physchem
measurement context: pH 7.4, aqueous buffer, kinetic from dmso stock, Solubility (pH 7.4)

CCNC(=O)Nc1nc2cc(-c3cnc(N4CCC(CC)(C(=O)O)CC4)nc3)cc(C(N)=O)c2s1
≥ 800 µg/mL
CCNC(=O)Nc1nc2cc(-c3cnc(N4CCC(C(=O)O)(C5CC5)CC4)nc3)cc(-c3ccccn3)c2s1
≥ 800 µg/mL

Turning now to a further record.
GET /values?readout=solubility at 24 h&item= CCNC(=O)Nc1nc2cc(-c3cnc(N4CCC(C)(C(=O)O)CC4)nc3)cc(-c3ncc(C)cc3F)c2s1 ≥ 800 µg/mL

----------
assay protocol: physchem
measurement context: pH 9, aqueous buffer, kinetic from dmso stock, Max Solubility
For each entry below, report its solubility at 24 h value.

Reference set, count: 3
CCCC1(C(=O)O)CCN(c2ncc(-c3cc(-c4ncnc5[nH]ccc45)c4sc(NC(=O)NCC)nc4c3)cn2)CC1 [Compound 125]
≥ 800 µg/mL
CCCC1(C(=O)O)CCN(c2ncc(-c3cc(-c4ncccc4C#N)c4sc(NC(=O)NCC)nc4c3)cn2)CC1 [Compound 126]
≥ 800 µg/mL
CCNC(=O)Nc1nc2cc(-c3cnc(N4CCC(C)(C(=O)O)CC4)nc3)cc(-c3noc(C)n3)c2s1 [Compound 213]
≥ 800 µg/mL

Fill in solubility at 24 h for each of the 5 molecules listed.
1. CCCC1(C(=O)O)CCN(c2ncc(-c3cc(-c4cc(OC)ncn4)c4sc(NC(=O)NCC)nc4c3)cn2)CC1 [Compound 121]
2. CCNC(=O)Nc1nc2cc(-c3cnc(N4CCC(CC)(C(=O)O)CC4)nc3)cc(COC)c2s1 [Compound 203]
3. CCNC(=O)Nc1nc2cc(-c3cnc(N4CCC(C)(C(=O)O)CC4)nc3)nc(-c3ccccn3)c2s1 [Compound 162]
4. CCNC(=O)Nc1nc2cc(-c3cnc(N4CCC(C)(C(=O)O)CC4)nc3)cc(-c3ncc(CC)cn3)c2s1 [Compound 60]
5. CCNC(=O)Nc1nc2cc(-c3cnc(N4CCC(C)(C(=O)O)CC4)nc3OC)cc(-c3ccccn3)c2s1 [Compound 220]

≥ 800 µg/mL
≥ 800 µg/mL
400 µg/mL
400 µg/mL
400 µg/mL
